Kindly supply the reported Ki values for the records listed here.
Target: human thrombin (Homo sapiens, UniProt P00734)
Assay: Inhibition of amidolytic activity of thrombin (chromogenic substrate S-2238)
Assay type: biochemical
Details: human thrombin 0.5 nM final conc., S-2238, pH 7.8, room temperature
Description: A differential inhibition of thrombin and other serine proteases by the above compounds is desirable in order to obtain compounds having as high a specificity as possible and at the same time to avoid possible side-effects. Specific chromogenic peptide substrates can be used to determine the inhibition of the catalytic activity of the above proteases. The inhibition of the amidolytic activity of thrombin and trypsin by the above guanidines was determined as described hereinafter. […]
Please provide the amount together with its unit, number first.

Worked cases, Ki given:
N=C(N)N1CCCC(CNC(=O)[C@@H](CC(=O)c2ccccc2N)NS(=O)(=O)c2ccc3ccccc3c2)C1 (stereo partly drawn) [Example 18f] | 16 nM
N=C(N)N1CCCC(CNC(=O)[C@@H](Cc2ccccc2)NS(=O)(=O)c2ccc3ccccc3c2)C1 (stereo partly drawn) | 135 nM

Please look at the items below and tell me Ki for each one, in order.
1. N=C(N)N1CCC[C@@H](CNC(=O)[C@@H](Cc2ccc([N+](=O)[O-])cc2)NS(=O)(=O)c2ccc(I)cc2)C1 [Example 17j]
2. N=C(N)N1CCCC(CNC(=O)[C@@H](CN2C(=O)C(=O)c3ccccc32)NS(=O)(=O)c2ccc3ccccc3c2)C1 (stereo partly drawn)
3. N=C(N)N1CCC[C@@H](COC(=O)[C@@H](Cc2c[nH]c3ccccc23)NS(=O)(=O)c2ccc(I)cc2)C1 [Example 17c]

1: 26.1 nM; 2: 8.55 nM; 3: 58 nM

Please look at the items below and tell me Ki for each one, in order.
1. N=C(N)N1CCC[C@@H](CNC(=O)[C@@H](Cc2ccc3ccccc3c2)NS(=O)(=O)c2ccc(I)cc2)C1 [Example 17f]
2. N=C(N)N1CCCC(CNC(=O)[C@@H](Cc2ccccc2[N+](=O)[O-])NS(=O)(=O)c2ccc3ccccc3c2)C1 (mixture of isomers) [Example 13a]
3. N=C(N)N1CCCC(CNC(=O)[C@@H](Cc2c[nH]c3ccccc23)NS(=O)(=O)c2ccccc2[N+](=O)[O-])C1 (mixture of isomers) [Example 14i]
4. N=C(N)N1CCC[C@@H](CNC(=O)[C@@H](Cc2c[nH]c3ccccc23)NS(=O)(=O)c2ccc(I)cc2)C1 [Example 17b]

1. 41.3 nM
2. 20.8 nM
3. 25 nM
4. 20.7 nM

----------
Molecular target: trypsin
Experiment: Inhibition of amidolytic activity of trypsin (chromogenic substrate S-2251)
Type: biochemical
Conditions: S-2251, 200 and 750 μM final concentration, pH 7.8, room temperature
Field: label. Allowed values: Condition met (Ki < 20000 nM) or Condition not met (Ki >= 20000 nM).

Example entries begin here.
N=C(N)N1CCC[C@@H](COC(=O)[C@@H](Cc2c[nH]c3ccccc23)NS(=O)(=O)c2ccc(I)cc2)C1 [Example 17c] | Condition met
N=C(N)N1CCCC(CNC(=O)[C@@H](Cc2ccccc2)NS(=O)(=O)c2ccc3ccccc3c2)C1 (stereo partly shown) | Condition not met
N=C(N)N1CCCC(CNC(=O)[C@@H](Cc2ccccc2[N+](=O)[O-])NS(=O)(=O)c2ccc3ccccc3c2)C1 (mixture of isomers) [Example 13a] | Condition not met
N=C(N)N1CCCC(CNC(=O)[C@@H](Cc2c[nH]c3ccccc23)NS(=O)(=O)c2ccccc2[N+](=O)[O-])C1 (mixture of isomers) [Example 14i] | Condition not met
N=C(N)N1CCC[C@@H](CNC(=O)[C@@H](Cc2c[nH]c3ccccc23)NS(=O)(=O)c2ccc(I)cc2)C1 [Example 17b] | Condition met

Shift focus to the following entry.
Quick check: Ki of N=C(N)N1CCC[C@@H](CNC(=O)[C@@H](Cc2ccc([N+](=O)[O-])cc2)NS(=O)(=O)c2ccc(I)cc2)C1 [Example 17j] under 20000 nM?
Condition met
